pIC50: −log10 of the molar value.
Please find below pIC50 measurements for IRE1a (Homo sapiens, UniProt O75460), combined from several publications.

Would you please look over these solved cases?
1) CCc1cc(-c2ccc(NS(=O)(=O)c3ccccc3Cl)c(F)c2)cc2cnc(N[C@@H]3CCC[C@H](N)C3)nc12	≥ 8.30
2) COCCNC(=O)CCc1c(C)c2c(OCCOC)cc(O)c(C=O)c2oc1=O	> 6.00
3) CC(C)c1nc(-c2cc(F)c(NS(=O)(=O)c3ccccc3Cl)cc2F)c2c(N)ncc(C3=CCC(NC4COC4)CC3)n12 (stereo not drawn)	6.96
4) CCc1cc(-c2cc(F)c(NS(=O)(=O)c3ccccc3Cl)cc2OC)cc2cnc(N[C@H]3CC[C@H](N)CC3)nc12	≥ 8.30
5) CCc1cc(-c2ccc(NS(=O)(=O)c3cccc(F)c3Cl)nc2C)cc2cnc(N[C@H]3CC[C@H](N(C)C)CC3)nc12	≥ 8.30
6) CN(C)C1CCN(c2ccc3c(C=O)c(O)ccc3c2)CC1	> 8.00
7) CC(C)c1nc(-c2ccc(NS(=O)(=O)c3ccccc3Cl)c(F)c2)c2c(N)ncc([C@H]3CC[C@H](N)CC3)n12	7.82
8) Cc1cc(NS(=O)(=O)CCC(F)(F)F)c2ccccc2c1Oc1ncccc1-c1ccnc(N[C@@H]2CNC[C@@H](F)C2)n1	8.47
9) O=S(=O)(Nc1ccc(-c2ccc3nc(N[C@H]4CCCNC4)ncc3c2)cc1F)c1ccccc1Cl	≥ 8.30
10) O=Cc1c(O)ccc2cc(-c3ccc(C(=O)NCCN4CCOCC4)nc3)ccc12	> 7.00

Item `COc1cc(O)c(C=O)c2oc(=O)c(CCC(=O)NCCN3CCOCC3)c(C)c12` has what recorded pIC50?
> 7.00

Another: `CN1CCN(C2CCN(c3ccc4ccc(O)c(C=O)c4c3)CC2)CC1`
< 6.00

And then `O=Cc1c(O)ccc2cc(-c3ccc(C(=O)N4CCOCC4)cn3)ccc12` , what is it?
> 6.00

Also `CCc1cc(-c2ccc(NS(=O)(=O)c3ccccc3Cl)cc2F)cc2cnc(N[C@H]3CC[C@H](N)CC3)nc12` ?
≥ 8.30

# iterate: `CCc1cc(-c2cc(NC(=O)Cc3cc(C(F)(F)F)ccc3C(F)(F)F)nn2C)cc2cnc(N[C@H]3CC[C@](C)(N)CC3)nc12`
7.00 to 7.30

* * *

We begin with IC50 values for IRE1a (Homo sapiens, UniProt O75460), as collected from the published literature.

Before answering, review these 3 worked examples.
1) COc1nc(NS(=O)(=O)c2ccccc2Cl)ccc1-c1cc(C(C)(F)F)c2nc(N[C@H]3CC[C@H](N(C)C)CC3)ncc2c1	≤ 5 nM
2) COc1nc(NS(=O)(=O)c2cccc(Cl)c2Cl)ccc1/C=C/c1cnc(NC2CCC(N(C)C)CC2)nc1 (stereo not shown)	≤ 1 nM
3) O=Cc1c(O)ccc2cc(-c3ccc(C(=O)NCC4CCCNC4)s3)ccc12 (stereo not shown)	< 100 nM

Could you tell me which IC50 is on file for `CCc1cc(-c2ncc(NS(=O)(=O)c3ccccc3Cl)nc2OC)cc2cnc(N[C@H]3CC[C@H](N(C)C)CC3)nc12` ?
≤ 5 nM

What do we get for `N[C@H]1CC[C@H](Nc2ncc3cc(-c4nnc(NS(=O)(=O)c5ccccc5Cl)s4)ccc3n2)CC1` ?
≤ 5 nM

Record: `CCc1cc(-c2ccc(NS(=O)(=O)c3ccccc3Cl)nc2C)cc2cnc(N[C@H]3CC[C@H](NC)CC3)nc12`
≤ 5 nM
